system: Staphylococcus aureus; experiment: Antibacterial activity against methicillin-sensitive Staphylococcus aureus 10-3 after 18 hrs by two fold serial dilution method; type: functional; settings: 10-3, 18 h
EXPERIMENTAL READOUT: MIC (µg/mL)
// note: answer is a bare numeric in µg/mL

Some solved cases for reference:
NCC1CN(c2nc3c(cc2F)c(=O)c(C(=O)O)cn3C2CC2)C/C1=N\OCF (racemic)
0.03
COc1c(N2C[C@@H]3CCCN[C@@H]3C2)c(F)cc2c(=O)c(C(=O)O)cn(C3CC3)c12 [MOXIFLOXACIN]
0.008
CC1(CN)CN(c2nc3c(cc2F)c(=O)c(C(=O)O)cn3C2CC2)C/C1=N\OCF (racemic)
0.25

Missing value: MIC, Staphylococcus aureus, entry NCC1CN(c2nc3c(cc2F)c(=O)c(C(=O)O)cn3-c2ccc(F)cc2F)C/C1=N\OC(F)F (racemic) . Fill in?
0.015
